- assayed system: Trypsin, from human pancreas (Homo sapiens, UniProt P07477)
- assay notes: Enzymatic assay, trypsin
- test conditions: at 100 μM
Where a SMILES comes first, the peptide text is derived from it.
So I've got a bunch of compounds here, and I need their Trypsin at 100 μM % values.

CCCC[C@@H]1NC(=O)[C@@H]2CCCN2C(=O)[C@H]2CCCN2C(=O)[C@H](Cc2ccc(O)cc2)NC(=O)[C@@H]2CSSC[C@H](NC1=O)C(=O)N[C@@H]([C@@H](C)O)C(=O)N[C@@H](C)C(=O)N[C@@H](CO)C(=O)N[C@@H]([C@@H](C)CC)C(=O)N1CCC[C@H]1C(=O)N1CC(NC(=O)c3ccccc3)C[C@H]1C(=O)N[C@@H](CCC(N)=O)C(=O)N2 (single isomer, unassigned) [Ex. 138]    12.2%

// below: Trypsin at 100 μM % requested for another compound
Supply recorded Trypsin at 100 μM % for CC[C@H](C)[C@@H]1NC(=O)[C@@H]2CCCN2C(=O)[C@@H]2CCCN2C(=O)[C@H](CC(=O)O)NC(=O)[C@H](CO)NC(=O)[C@H](CCCCN)NC(=O)[C@H]([C@@H](C)O)NC(=O)[C@@H]2CSSC[C@H](NC1=O)C(=O)N[C@@H](CO)C(=O)N1CCC[C@@H]1C(=O)N[C@@H](CCC(=O)O)C(=O)N[C@@H](Cc1ccccc1)C(=O)N2 [Ex. 64] (HELM PEPTIDE1{F.C.T.K.S.D.P.P.I.C.S.[dP].E}$PEPTIDE1,PEPTIDE1,2:R3-10:R3|PEPTIDE1,PEPTIDE1,1:R1-13:R2$$$V2.0) here. 87%

----------
So I've got a bunch of molecules here, and I need their Cytotoxicity LC50/GI50 Hela cells values.
- Tested on: HELA cells (Acc57)
- assay notes: Cytotoxicity assay (MTT reduction), HELA cells
- Format: cell-based
- test conditions: Hela cells
Where a SMILES comes first, the peptide text is derived from it.
Give bare numbers, in µM.

CCCC[C@@H]1NC(=O)[C@@H]2CCCN2C(=O)[C@H]2CCCN2C(=O)[C@H](Cc2ccc(O)cc2)NC(=O)[C@@H]2CSSC[C@H](NC1=O)C(=O)N[C@@H]([C@@H](C)O)C(=O)N[C@@H](C)C(=O)N[C@@H](CO)C(=O)N[C@@H]([C@@H](C)CC)C(=O)N1CCC[C@H]1C(=O)N1CC(NC(=O)c3ccccc3)C[C@H]1C(=O)N[C@@H](CCC(N)=O)C(=O)N2 (single isomer, unassigned)    73

// below: Cytotoxicity LC50/GI50 Hela cells requested for another molecule
Supply recorded Cytotoxicity LC50/GI50 Hela cells for CCCC[C@@H]1NC(=O)[C@@H]2CCCN2C(=O)[C@H]2CCCN2C(=O)[C@H](c2ccccc2)NC(=O)[C@@H]2CSSC[C@H](NC1=O)C(=O)N[C@@H]([C@@H](C)O)C(=O)N[C@@H](C)C(=O)N[C@@H](CO)C(=O)N[C@@H]([C@@H](C)CC)C(=O)N1CCC[C@H]1C(=O)N1CCC[C@H]1C(=O)N[C@@H](CCC(N)=O)C(=O)N2 [Ex. 98] (HELM PEPTIDE1{[Nle].C.T.A.S.I.P.P.Q.C.[Phg].[dP].P}$PEPTIDE1,PEPTIDE1,2:R3-10:R3|PEPTIDE1,PEPTIDE1,1:R1-13:R2$$$V2.0) here. 78

----------
- assayed system: Elastase from human neutrophils (Homo sapiens, UniProt P08246)
- Sequence (P08246 30-267): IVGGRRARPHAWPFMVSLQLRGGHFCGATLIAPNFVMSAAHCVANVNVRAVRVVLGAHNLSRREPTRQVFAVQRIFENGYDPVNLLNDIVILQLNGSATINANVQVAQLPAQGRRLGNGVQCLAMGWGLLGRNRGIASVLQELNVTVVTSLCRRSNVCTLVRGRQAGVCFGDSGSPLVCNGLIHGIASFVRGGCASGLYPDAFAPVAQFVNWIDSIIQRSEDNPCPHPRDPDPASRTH
- assay notes: Enzymatic assay, elastase
- test conditions: Elastase IC50
Where a SMILES comes first, the peptide text is derived from it.
Doc: threshold 50 nM (exclusive). Items with IC50 beneath it return true (1); others return false (0).

Look over these answered cases.
CC[C@H](C)[C@@H]1NC(=O)[C@@H]2CCCN2C(=O)[C@H]2CCCN2C(=O)[C@H](Cc2ccc(O)cc2)NC(=O)[C@@H]2CSSC[C@H](NC1=O)C(=O)N[C@@H]([C@@H](C)O)C(=O)N[C@@H](C)C(=O)N[C@@H](CO)C(=O)N[C@@H](CC(C)C)C(=O)N1CCC[C@H]1C(=O)N1CCC[C@H]1C(=O)N[C@@H](Cc1ccc(O)cc1)C(=O)N2 [Ex. 114] (HELM PEPTIDE1{I.C.T.A.S.L.P.P.Y.C.Y.[dP].P}$PEPTIDE1,PEPTIDE1,2:R3-10:R3|PEPTIDE1,PEPTIDE1,1:R1-13:R2$$$V2.0)    true (1)
CCCC[C@@H]1NC(=O)[C@H]([C@@H](C)O)NC(=O)[C@@H]2CSSC[C@H](NC(=O)[C@H]([C@@H](C)CC)NC(=O)[C@@H]3CCCN3C(=O)[C@@H]3CCCN3C(=O)[C@H](CC(=O)O)NC(=O)[C@H](CO)NC1=O)C(=O)N[C@@H](Cc1ccc(O)cc1)C(=O)N1CCC[C@@H]1C(=O)N1CCC[C@H]1C(=O)N[C@@H](Cc1ccccc1)C(=O)N2 [Ex. 23] (HELM PEPTIDE1{F.C.T.[Nle].S.D.P.P.I.C.Y.[dP].P}$PEPTIDE1,PEPTIDE1,2:R3-10:R3|PEPTIDE1,PEPTIDE1,1:R1-13:R2$$$V2.0)    false (0)
CCCC[C@@H]1NC(=O)[C@@H]2CCCN2C(=O)[C@H]2CCCN2C(=O)[C@H](Cc2ccc(O)cc2)NC(=O)[C@H]([C@@H](C)O)NC(=O)[C@H](CCC(N)=O)NC(=O)[C@@H]2CCCN2C(=O)[C@@H]2CCCN2C(=O)[C@H]([C@@H](C)CC)NC(=O)[C@H](CO)NC(=O)[C@H](C)NC(=O)[C@H]([C@@H](C)O)NC(=O)[C@H](CCC(N)=O)NC1=O [Ex. 109] (HELM PEPTIDE1{[Nle].Q.T.A.S.I.P.P.Q.T.Y.[dP].P}$PEPTIDE1,PEPTIDE1,1:R1-13:R2$$$V2.0)    true (1)

Record CCCCCCCC[C@@H]1NC(=O)[C@@H]2CCCN2C(=O)[C@H]2CCCN2C(=O)[C@H](Cc2ccc(O)cc2)NC(=O)[C@@H]2CSSC[C@H](NC1=O)C(=O)N[C@@H]([C@@H](C)O)C(=O)N[C@@H](C)C(=O)N[C@@H](CO)C(=O)N[C@@H]([C@@H](C)CC)C(=O)N1CCC[C@H]1C(=O)N1CCC[C@H]1C(=O)N[C@@H](CCC(N)=O)C(=O)N2 [Ex. 102] (HELM PEPTIDE1{[CCCCCCCC[C@H](N[*:1])C(=O)[*:2]].C.T.A.S.I.P.P.Q.C.Y.[dP].P}$PEPTIDE1,PEPTIDE1,2:R3-10:R3|PEPTIDE1,PEPTIDE1,1:R1-13:R2$$$V2.0) : is its IC50 strictly below 50 nM? true (1)

Record CCCC[C@@H]1NC(=O)[C@@H]2CCCN2C(=O)[C@H]2CCCN2C(=O)[C@H](CCCNC(=N)N)NC(=O)[C@@H]2CSSC[C@H](NC1=O)C(=O)N[C@@H]([C@@H](C)O)C(=O)N[C@@H](C)C(=O)N[C@@H](CO)C(=O)N[C@@H]([C@@H](C)CC)C(=O)N1CCC[C@H]1C(=O)N1CCC[C@H]1C(=O)N[C@@H](CCC(N)=O)C(=O)N2 [Ex. 92] (HELM PEPTIDE1{[Nle].C.T.A.S.I.P.P.Q.C.R.[dP].P}$PEPTIDE1,PEPTIDE1,2:R3-10:R3|PEPTIDE1,PEPTIDE1,1:R1-13:R2$$$V2.0) : is its IC50 strictly below 50 nM? true (1)

Record CC[C@H](C)[C@@H]1NC(=O)[C@@H]2CCCN2C(=O)[C@@H]2CCCN2C(=O)[C@H](CC(=O)O)NC(=O)[C@H](CO)NC(=O)[C@H](CCCCN)NC(=O)[C@H]([C@@H](C)O)NC(=O)[C@@H]2CSSC[C@H](NC1=O)C(=O)N[C@@H](CCCNC(=N)N)C(=O)N1CCC[C@@H]1C(=O)N1CCC[C@H]1C(=O)N[C@@H](C1CCCCC1)C(=O)N2 [Ex. 12] (HELM PEPTIDE1{[O=C([C@@H](N[*:1])C1CCCCC1)[*:2]].C.T.K.S.D.P.P.I.C.R.[dP].P}$PEPTIDE1,PEPTIDE1,2:R3-10:R3|PEPTIDE1,PEPTIDE1,1:R1-13:R2$$$V2.0) : is its IC50 strictly below 50 nM? false (0)

Record CCCC[C@@H]1NC(=O)[C@@H]2CCCN2C(=O)[C@@H]2CCCN2C(=O)[C@H](CC(=O)O)NC(=O)[C@H](CO)NC(=O)[C@H](CCCCN)NC(=O)[C@H]([C@@H](C)O)NC(=O)[C@@H]2CSSC[C@H](NC1=O)C(=O)N[C@@H](Cc1ccc(O)cc1)C(=O)N1CCC[C@@H]1C(=O)N1CCC[C@H]1C(=O)N[C@@H](C1CCCCC1)C(=O)N2 [Ex. 63] (HELM PEPTIDE1{[O=C([C@@H](N[*:1])C1CCCCC1)[*:2]].C.T.K.S.D.P.P.[Nle].C.Y.[dP].P}$PEPTIDE1,PEPTIDE1,2:R3-10:R3|PEPTIDE1,PEPTIDE1,1:R1-13:R2$$$V2.0) : is its IC50 strictly below 50 nM? false (0)
